# targetOfAssay: NMDA receptor composed of four subunits including 2 sets of heterodimers of NR1 and NR2B (Homo sapiens, UniProt Q13224)
# Construct: host or cells: HEK293 (tetracycline-induced expression)
# Sequence (Q13224 27-1484, other chains not shown): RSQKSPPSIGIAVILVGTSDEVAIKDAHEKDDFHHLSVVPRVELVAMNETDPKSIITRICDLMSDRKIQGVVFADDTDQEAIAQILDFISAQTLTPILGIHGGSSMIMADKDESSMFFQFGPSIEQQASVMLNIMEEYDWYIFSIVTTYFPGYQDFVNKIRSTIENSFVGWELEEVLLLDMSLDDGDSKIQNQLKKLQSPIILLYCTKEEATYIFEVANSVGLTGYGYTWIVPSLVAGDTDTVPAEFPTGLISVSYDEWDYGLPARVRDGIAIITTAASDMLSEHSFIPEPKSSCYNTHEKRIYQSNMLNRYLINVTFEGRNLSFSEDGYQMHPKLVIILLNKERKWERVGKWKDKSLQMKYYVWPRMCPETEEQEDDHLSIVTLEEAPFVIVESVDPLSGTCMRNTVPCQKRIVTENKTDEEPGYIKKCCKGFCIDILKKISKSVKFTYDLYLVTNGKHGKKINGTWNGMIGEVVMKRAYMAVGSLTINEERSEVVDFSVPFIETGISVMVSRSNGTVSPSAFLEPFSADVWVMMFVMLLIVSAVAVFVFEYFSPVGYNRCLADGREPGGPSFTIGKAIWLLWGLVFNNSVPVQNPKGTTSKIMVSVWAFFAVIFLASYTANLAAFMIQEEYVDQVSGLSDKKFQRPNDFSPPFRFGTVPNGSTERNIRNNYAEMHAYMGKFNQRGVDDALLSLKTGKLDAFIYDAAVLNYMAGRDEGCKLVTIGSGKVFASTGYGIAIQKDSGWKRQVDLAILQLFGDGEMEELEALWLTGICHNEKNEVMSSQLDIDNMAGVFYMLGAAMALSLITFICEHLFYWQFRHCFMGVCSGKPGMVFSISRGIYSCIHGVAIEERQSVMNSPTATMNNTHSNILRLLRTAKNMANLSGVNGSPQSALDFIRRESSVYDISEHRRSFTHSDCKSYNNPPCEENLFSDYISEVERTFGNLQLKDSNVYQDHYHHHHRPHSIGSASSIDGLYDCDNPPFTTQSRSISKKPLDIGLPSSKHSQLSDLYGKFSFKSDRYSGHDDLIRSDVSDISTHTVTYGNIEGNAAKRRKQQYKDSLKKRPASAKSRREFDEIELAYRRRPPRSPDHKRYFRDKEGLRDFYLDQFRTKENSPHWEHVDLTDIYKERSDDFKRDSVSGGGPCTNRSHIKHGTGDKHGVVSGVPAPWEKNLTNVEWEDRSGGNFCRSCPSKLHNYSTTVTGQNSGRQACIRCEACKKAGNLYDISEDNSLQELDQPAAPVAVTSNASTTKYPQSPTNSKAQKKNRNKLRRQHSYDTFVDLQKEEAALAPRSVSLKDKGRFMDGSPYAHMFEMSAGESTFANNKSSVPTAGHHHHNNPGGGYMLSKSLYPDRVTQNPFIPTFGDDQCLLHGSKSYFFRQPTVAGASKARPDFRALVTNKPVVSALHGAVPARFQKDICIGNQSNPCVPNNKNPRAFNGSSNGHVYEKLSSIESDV
# runDescription: NR2B Ca2+ influx assay (FLIPR, Fluo-4) in HEK293 cells expressing human GRIN1 and GRIN2B
# Format: cell-based
# protocolConditions: HEK293, 10 μM final compound concentration, glutamic acid/glycine-induced Ca2+ influx, read-out: inhibitory rate (10 μM compound concentration)
measure: inhibition at 10 µM (%)

> print(dat)
                                   molecule  numericreadout
1  Cc1ccc(C(=O)NCc2cccc3[nH]ncc23)cc1Cl [Example 185]              74
2  COc1ccc(C(=O)NCc2cccc3[nH]ncc23)cc1F [Example 181]              67
3  COc1ccc2ncn(C)c2c1CNC(=O)Nc1cccc(C(F)(F)F)c1 [Example 222]              55
4  COc1ncc(C(=O)NCc2c(C3CC3)ccc3[nH]ncc23)cc1F [Example 96]              93
5  COc1ccc2ncn(C)c2c1CNC(=O)c1ccc(Cl)cc1 [Example 116]              90
6  COc1ccc2ncn(C)c2c1CNC(=O)Nc1ccc(C(F)(F)F)cc1F [Example 260]              92
7  COc1ccc2ncn(C)c2c1CNC(=O)c1cc(F)c(Cl)c(Cl)c1 [Example 55]              90
8  COc1ccc2nc(C)n(C)c2c1CNC(=O)c1ccc(OC(F)(F)F)cc1 [Example 252]              88
